Where do these numbers come from? They come from PubChem BioAssay (NCI).

// values below are reported TGI
System: CAKI-1 renal
Assay: NCI tumour cell line growth inhibition, 48 h

Answered cases to consult:
COc1cc2c[n+](C)c3c4cc(OC)c(OCc5ccccc5)cc4c(OCc4ccccc4)cc3c2cc1OC
> 77.3 µM
COc1ccc2c(c1)/C(=N/OC(C)=O)c1c-2c(OC)nc2ccccc12
> 100 µM
CCOC(=O)C1C(=O)CC(=O)C2CCCCC21 (stereo not drawn)
> 100 µM
COc1ccc2c(c1)[n+]([O-])c(-c1ccccc1Cl)c(N)[n+]2[O-]
> 100 µM
CCSc1nc(N/N=C/c2cccs2)c2cnn(CO)c2n1
13.7 µM

Now take the following molecule into account.
// sample `CN(C)N=Nc1ccc(S(N)(=O)=O)cc1` , its TGI was > 100 µM

---

Tested on: KM12 colon
Assay: NCI tumour cell line growth inhibition, 48 h
reported.metric: TGI

Cc1nc2ccc(NC3OCC(O)C(O)C3O)cc2c(=O)n1-c1ccccc1 (stereo not drawn)
> 100 µM
CCOC(=O)C1C(=O)CC(=O)C2CCCCC21 (stereo not drawn)
> 100 µM
CCN1C(=O)N(CC)C2C1N=C(SC)N2/N=C/C=C/c1ccccc1OC (stereo not drawn)
> 39.6 µM
Brc1ccc(-c2cc3c(cc2C2SCCS2)OCO3)cc1
> 100 µM
N#CC(/C(CCCC(=O)Nc1cccc([N+](=O)[O-])c1)=N\NC(=O)c1c(O)ccc2ccccc12)c1nc2ccccc2s1 (stereo not drawn)
> 100 µM

// sample `CCCCCCCCCCCCCS(=O)(=O)NCC(N)=O` , its TGI was > 100 µM

// sample `Cc1[nH]c2nccn2c(=O)c1CCO` , its TGI was > 10 µM

// sample COc1ccc2nc3ccccc3c(NCCNCC(C)O)c2c1 (stereo not drawn) , its TGI was 14.2 µM

// sample `CCOC(=O)/C=C1/SC(=Nc2ccc(C#N)cc2)N(Cc2ccco2)C1=O` , its TGI was 5.01 µM

// sample `Cc1c(-c2ccccn2)ccc2ccccc12` , its TGI was > 100 µM

// sample O=C(CC(C(=O)c1cccs1)c1ccsc1)c1ccc(Cl)s1 (stereo not drawn) , its TGI was > 100 µM

// sample N#CC1=C(N)N(/N=C/c2ccco2)C(c2ccco2)C1(C#N)C#N (stereo not drawn) , its TGI was 28.7 µM

// sample CC(=O)NC(C)(C)C1CCC(C)CC1 (stereo not drawn) , its TGI was > 100 µM

---

Test system: NCI/ADR-RES ovarian
Assay: NCI tumour cell line growth inhibition, 48 h
// values below are reported TGI

Answered cases to consult:
C=C(C)CCC1C=[N+]([O-])OC(C)(C)C1(C)C (stereo not drawn)
> 100 µM
O=C1Cc2cc(CCN3CCNCC3)c(Cl)cc2N1
> 100 µM

// sample `O=C1/C(=C/c2ccc([N+](=O)[O-])o2)Oc2ccc(Cl)cc21` , its TGI was > 100 µM

---

System: U251 CNS
Test: NCI tumour cell line growth inhibition, 48 h
Where a SMILES comes first, the peptide text is derived from it. [ ]: non-standard residue; d: D form. The star is where a group is joined. ξ: configuration not given here. NMeF = CN[C@@H](Cc1ccccc1)C(=O)O; NMeV = CN[C@H](C(=O)O)C(C)C; ξNMeV = CNC(C(=O)O)C(C)C; Boc = CC(C)(C)OC(=O)*; OBn = c1ccc(CO*)cc1
Hi, to clarify the labels: 1 covers TGI from 30 µM upward, -1 covers anything below 30 µM.

The following molecules have reported results that may help.
CN1CCN(c2ccc(NC3=CC(=O)c4ncncc4C3=O)cc2)CC1
-1
COc1ccc(N2C(=O)/C(=C/c3ccc(N(CCC#N)CCC#N)cc3)N=C2c2ccccc2)cc1
1
CN(CCCCCl)P(=O)(OCc1ccc([N+](=O)[O-])o1)OCC1OC(n2cc([N+](=O)[O-])c(=O)[nH]c2=O)CC1O (stereo not drawn)
1
Cc1ccc(NC(=O)C2C3CCC(O3)C2C(=O)O)cc1 (stereo not drawn)
1
O=C(NC1=C(Cl)C(=O)c2ccccc2C1=O)C(=O)C(C(=O)c1ccc2ccccc2c1)C1OC(=O)c2ccccc21 (stereo not drawn)
-1

# input Say whether COC(=O)C(=O)C(C(=O)OC)C(=O)C(=O)Nc1c(Cl)cc([N+](=O)[O-])cc1Cl (stereo not drawn) shows TGI of 30 µM or more.
# output 1

# input Say whether N#CC(/C(CCCC(=O)Nc1cccc([N+](=O)[O-])c1)=N\NC(=O)c1c(O)ccc2ccccc12)c1nc2ccccc2s1 (stereo not drawn) shows TGI of 30 µM or more.
# output 1

# input Say whether N#CC1=C(N)N(/N=C/c2ccco2)C(c2ccco2)C1(C#N)C#N (stereo not drawn) shows TGI of 30 µM or more.
# output 1

# input Say whether `COc1ccc(C2=NNC(=O)c3ccccc3N2c2nc(-c3cccs3)nc3cc(OC)c(OC)cc23)cc1` shows TGI of 30 µM or more.
# output 1

# input Say whether CCN(CC)c1ccc(C2N3CCCCC3[C@@H]3c4[nH]c5ccccc5c4CCN23)cc1 (stereo partly drawn) shows TGI of 30 µM or more.
# output 1

# input Say whether CC(C)C(C(=O)N(C)[C@H](C(=O)N1CCC[C@H]1C(=O)N(C)[C@@H](Cc1ccccc1)C(=O)OCc1ccccc1)C(C)C)N(C)C(=O)[C@@H](NC(=O)OC(C)(C)C)C(C)C (stereo partly drawn) (Boc-V[ξNMeV][NMeV]P[NMeF]-OBn) shows TGI of 30 µM or more.
# output 1

# input Say whether O=c1[nH]c(=O)n(C2CC(O)C(CO)O2)cc1Br (stereo not drawn) shows TGI of 30 µM or more.
# output 1

# input Say whether `CC(=O)[CH-]C(=O)c1ccccc1.CC(=O)[CH-]C(=O)c1ccccc1.CC(=O)[CH-]C(=O)c1ccccc1.[Ga+3]` shows TGI of 30 µM or more.
# output -1

---

System: CCRF-CEM leukemia
Experiment: NCI tumour cell line growth inhibition, 48 h; in the data active = GI50 below about 0.43 µM; inactive = the rest
Form entry, call: pick from active, inactive

The following compounds have reported results that may help.
CCN1C(=O)N(CC)C2C1N=C(SC)N2/N=C/C=C/c1ccccc1OC (stereo not drawn)
active
COc1ccc2nc3ccccc3c(NCCNCC(C)O)c2c1 (stereo not drawn)
inactive
CSc1nc2c(c(=O)n1C)C(c1ccccc1)C1=C(N2)/C(=C/c2ccccc2)CCC1 (stereo not drawn)
inactive
Clc1ccc(-c2nc(NCc3ccco3)c3ccccc3n2)c(Cl)c1
inactive

# input Any idea what this test logged for `COc1ccc2c(c1)nnc1c3cccnc3[nH]c21` ?
# output active

# input Any idea what this test logged for `C(=N\Nc1ccc2ccccc2n1)/c1ccccn1` ?
# output active

# input Any idea what this test logged for `CC/C=C\C[C@H]1C/C=C2/C(=O)C(Cl)=C[C@@H]2C/C=C\CCCC(=O)O1` ?
# output active

# input Any idea what this test logged for `Cc1cc(N(CCNc2ccnc3cc(Cl)ccc23)Cc2ccc3c(c2)OCO3)nc(N2CCCC2)n1` ?
# output inactive

---

System: SN12C renal
Experiment: NCI tumour cell line growth inhibition, 48 h
// values below are reported TGI

Answered cases to consult:
CCOC(=O)C1C(=O)CC(=O)C2CCCCC21 (stereo unspecified)
> 100 µM
COc1cc(C(=O)n2nc(N)c3c(C)cc(C)nc32)cc(OC)c1OC
> 100 µM
CC(=O)OCC1OC(n2c(=S)n(-c3ccccc3)c(=O)c3cc(Br)ccc32)C(OC(C)=O)C1OC(C)=O (stereo unspecified)
> 100 µM
COc1cc(/C=C/C(=N\NC(N)=S)c2sc(NNC(C)=O)nc2C)ccc1O
> 100 µM
Cc1ccc(NC(=O)C2C3CCC(O3)C2C(=O)O)cc1 (stereo unspecified)
> 81.4 µM

Now take the following molecule into account.
// sample `O=S(O)c1cc(Cl)c(O)c(Cl)c1` , its TGI was > 100 µM

---

// values below are reported GI50
Tested on: SN12C renal
Assay: NCI tumour cell line growth inhibition, 48 h

// sample `COc1cc(C(=O)n2nc(N)c3c(C)cc(C)nc32)cc(OC)c1OC` , its GI50 was > 100 µM

// sample CN(CCCCCl)P(=O)(OCc1ccc([N+](=O)[O-])o1)OCC1OC(n2cc([N+](=O)[O-])c(=O)[nH]c2=O)CC1O (centres undefined) , its GI50 was 51.9 µM

// sample `O=C1/C(=C/c2ccc(C(F)(F)F)cc2)COc2ccc(O)c(O)c21` , its GI50 was 1.15 µM

// sample `CC(=O)[CH-]C(=O)c1ccccc1.CC(=O)[CH-]C(=O)c1ccccc1.CC(=O)[CH-]C(=O)c1ccccc1.[Ga+3]` , its GI50 was 15 µM

---

Tested on: MDA-MB-435
Experiment: NCI tumour cell line growth inhibition, 48 h; in the data active = GI50 below about 0.43 µM; inactive = the rest
Form entry, call: pick from 1.0 (active), 0.0 (inactive)

FC(F)(F)c1cccc(-c2[nH]ncc2-c2nnnn2-c2ccccc2)c1
0.0
CC1=C[C@@H]2c3c(c(O)c(O)c4oc5cc(O)cc(O)c5c(=O)c34)[C@@H](c3cc(O)c(O)c4oc5cc(O)cc(O)c5c(=O)c34)[C@@H]2C(C)(C)C1
0.0
CC1OC(O[C@@H]2C=C3CC[C@@H]4[C@H](CC[C@]5(C)[C@@H](c6ccc(=O)oc6)CC[C@]45O)[C@@]3(C)CC2)C(O)C(OC2OC(CO)C(O)C(O)C2O)C1O (stereo not given in full)
1.0
O=C(C(=CN1CCN(C(=O)c2ccco2)C1=S)C(=O)c1ccccc1)c1ccccc1
0.0

# ---- query molecule ----
# input Any idea what this test logged for `O=C(NCCNCCO)c1ccc(Nc2nc3ccccc3c3occc23)cc1` ?
# output 0.0
